Target: hFASN enzyme (full length) (Homo sapiens (Human), UniProt P49327)
Sequence (P49327 whole entry): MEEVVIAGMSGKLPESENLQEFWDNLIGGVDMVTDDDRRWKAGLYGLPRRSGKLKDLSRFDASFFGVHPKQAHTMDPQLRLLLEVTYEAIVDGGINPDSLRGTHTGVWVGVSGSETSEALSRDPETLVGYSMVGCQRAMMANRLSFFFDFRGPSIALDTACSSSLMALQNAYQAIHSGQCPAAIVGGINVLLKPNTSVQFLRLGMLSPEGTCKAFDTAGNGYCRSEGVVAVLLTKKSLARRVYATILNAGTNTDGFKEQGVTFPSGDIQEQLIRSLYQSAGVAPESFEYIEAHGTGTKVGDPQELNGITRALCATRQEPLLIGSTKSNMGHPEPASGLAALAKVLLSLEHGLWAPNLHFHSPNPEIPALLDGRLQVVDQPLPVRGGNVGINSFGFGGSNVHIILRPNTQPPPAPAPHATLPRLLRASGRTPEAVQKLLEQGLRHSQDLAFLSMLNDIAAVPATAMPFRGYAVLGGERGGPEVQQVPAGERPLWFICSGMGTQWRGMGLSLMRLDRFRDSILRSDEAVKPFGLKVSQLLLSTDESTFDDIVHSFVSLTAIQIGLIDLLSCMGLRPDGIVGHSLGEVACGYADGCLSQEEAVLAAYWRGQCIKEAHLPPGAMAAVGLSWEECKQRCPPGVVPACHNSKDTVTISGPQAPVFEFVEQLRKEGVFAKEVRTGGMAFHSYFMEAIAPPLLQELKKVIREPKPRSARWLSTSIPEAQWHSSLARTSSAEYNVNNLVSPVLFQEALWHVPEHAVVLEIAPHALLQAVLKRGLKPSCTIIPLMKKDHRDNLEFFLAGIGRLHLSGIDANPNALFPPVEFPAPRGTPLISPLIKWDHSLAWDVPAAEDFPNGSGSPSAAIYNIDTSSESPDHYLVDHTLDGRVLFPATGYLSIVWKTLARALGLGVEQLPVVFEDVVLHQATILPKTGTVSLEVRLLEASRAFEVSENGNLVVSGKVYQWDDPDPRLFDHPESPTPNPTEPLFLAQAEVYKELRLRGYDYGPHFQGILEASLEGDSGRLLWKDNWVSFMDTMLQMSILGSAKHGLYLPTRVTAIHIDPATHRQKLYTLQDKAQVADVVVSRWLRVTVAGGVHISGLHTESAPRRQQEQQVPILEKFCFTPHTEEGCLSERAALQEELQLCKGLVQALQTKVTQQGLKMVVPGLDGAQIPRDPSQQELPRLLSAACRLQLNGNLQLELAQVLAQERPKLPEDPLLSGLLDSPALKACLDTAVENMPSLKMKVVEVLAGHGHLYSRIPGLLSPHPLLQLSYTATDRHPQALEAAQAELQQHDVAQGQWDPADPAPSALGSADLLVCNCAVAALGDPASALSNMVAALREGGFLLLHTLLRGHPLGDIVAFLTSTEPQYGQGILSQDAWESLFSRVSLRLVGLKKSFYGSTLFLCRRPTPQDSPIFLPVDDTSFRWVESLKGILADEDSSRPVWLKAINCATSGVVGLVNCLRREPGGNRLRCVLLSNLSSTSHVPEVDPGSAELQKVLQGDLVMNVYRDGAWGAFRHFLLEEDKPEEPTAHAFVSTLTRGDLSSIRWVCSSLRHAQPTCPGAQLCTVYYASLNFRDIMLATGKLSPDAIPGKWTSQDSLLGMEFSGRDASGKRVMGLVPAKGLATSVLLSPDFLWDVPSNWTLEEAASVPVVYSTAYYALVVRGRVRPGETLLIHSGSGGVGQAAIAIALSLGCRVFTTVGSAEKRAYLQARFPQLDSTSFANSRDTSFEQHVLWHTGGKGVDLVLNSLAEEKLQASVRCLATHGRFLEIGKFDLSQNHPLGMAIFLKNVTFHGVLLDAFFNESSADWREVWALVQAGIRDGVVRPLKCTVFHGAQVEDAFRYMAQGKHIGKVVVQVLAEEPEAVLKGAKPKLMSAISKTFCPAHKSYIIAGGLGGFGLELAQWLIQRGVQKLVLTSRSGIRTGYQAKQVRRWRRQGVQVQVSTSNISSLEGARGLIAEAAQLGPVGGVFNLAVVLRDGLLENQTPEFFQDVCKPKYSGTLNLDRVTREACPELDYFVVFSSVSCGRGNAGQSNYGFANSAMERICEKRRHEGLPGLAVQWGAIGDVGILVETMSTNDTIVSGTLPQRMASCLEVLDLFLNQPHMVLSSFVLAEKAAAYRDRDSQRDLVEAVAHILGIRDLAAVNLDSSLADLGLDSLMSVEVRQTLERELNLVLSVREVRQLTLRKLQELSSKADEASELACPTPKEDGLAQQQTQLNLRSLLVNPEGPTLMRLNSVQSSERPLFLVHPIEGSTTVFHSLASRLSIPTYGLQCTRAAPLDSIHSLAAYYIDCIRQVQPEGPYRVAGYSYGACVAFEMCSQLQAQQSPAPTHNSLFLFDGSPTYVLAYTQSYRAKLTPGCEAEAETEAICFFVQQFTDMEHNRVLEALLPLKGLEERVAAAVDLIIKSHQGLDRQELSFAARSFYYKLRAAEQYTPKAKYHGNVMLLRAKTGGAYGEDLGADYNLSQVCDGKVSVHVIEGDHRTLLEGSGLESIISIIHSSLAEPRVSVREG
Test: Fatty Acid Synthase (FASN) Inhibition Scintillation Proximity Assay
Format: biochemical
Details: 3H-acetyl-CoA and malonyl-CoA substrates, SPA, mean if tested more than once
Experimental: In this assay, inhibition of FASN activity is measured using ^3H-acetyl-CoA and malonyl-CoA as substrates. ^3H-Acetyl CoA is converted to ^3H-palmitate through a series of reactions by the FASN protein, which contains 7 functional domains and carries out 7 enzymatic reactions to ultimately produce ^3H-palmitate. […] Raw data generated by the instrument were normalized to % Controlmin values, which were calculated as: % Controlmin=100*(x−mLC)/(mHC−mLC) […]
Listed here: items and their measured Human FASN pIC50.
Observable: Human FASN pIC50

INSERT INTO results (record_smiles, measured_target, numeric_readout) VALUES
  ('CC1(C)N=C(c2ccc(-c3ccc4cccc(F)c4c3)cc2F)N(CC2CN(C(=O)C3CC3)C2)C1=O', 'hFASN enzyme (full length) (Homo sapiens (Human), UniProt P49327)', 7.46),
  ('CC1(C)N=C(c2ccc(-c3ccc4cnccc4c3)cc2F)N(CC2CN(C(=O)C3CC3)C2)C1=O', 'hFASN enzyme (full length) (Homo sapiens (Human), UniProt P49327)', 7.17),
  ('CC1(C)N=C(c2ccc(-c3nc4ccccc4o3)cc2)N(C[C@@H]2CCN(C(=O)C3CC3)C2)C1=O', 'hFASN enzyme (full length) (Homo sapiens (Human), UniProt P49327)', 6.20),
  ('CC1(C)N=C(c2ccc(-c3c[nH]c4ccccc34)cc2F)N(CC2CN(C(=O)C3CC3)C2)C1=O', 'hFASN enzyme (full length) (Homo sapiens (Human), UniProt P49327)', 6.69),
  ('CC1(C)N=C(c2ccc(-c3ccc4cc(F)ccc4c3)cc2F)N(C[C@@H]2CCN(C(=O)C3CC3)C2)C1=O', 'hFASN enzyme (full length) (Homo sapiens (Human), UniProt P49327)', 7.48),
  ('Cc1cc(-c2ccc3cc(F)ccc3c2)ccc1C1=NC(C)(C)C(=O)N1CC1CN(C(=O)C2(C)CC2)C1', 'hFASN enzyme (full length) (Homo sapiens (Human), UniProt P49327)', 7.47),
  ('CC1(C)N=C(c2ccc(-c3ccc4cncnc4c3)cc2)N(CC2CN(C(=O)C3CC3)C2)C1=O', 'hFASN enzyme (full length) (Homo sapiens (Human), UniProt P49327)', 5.43);

---

target: FASN Keto-reductase Domain (hFASN enzyme, full length) (Homo sapiens (Human), UniProt P49327); assay: Fatty Acid Synthase Keto-reductase Domain (FASN KR) Inhibition; assay type: biochemical; settings: NADPH oxidation at 340 nm, ethyl acetoacetate substrate
Sequence (P49327 whole entry, the tested form may be a part): as the sequence (P49327 whole entry) above
Observable: FASN Keto-reductase Domain pIC50

INSERT INTO results (record_smiles, observable, result) VALUES
  ('CC1(C)N=C(c2ccc(-c3ccc4cccnc4c3)cc2F)N(C[C@@H]2CCN(C(=O)C3CC3)C2)C1=O', 'FASN Keto-reductase Domain pIC50', 7.20),
  ('CC1(C)N=C(c2ccc(-c3ccc(-c4ccncc4)cc3)cc2F)N(CC2CN(C(=O)C3CC3)C2)C1=O', 'FASN Keto-reductase Domain pIC50', 6.57),
  ('CC1(C)N=C(c2ccc(-c3ccc(-c4ccncc4)cc3)cc2)N(C[C@@H]2CCN(C(=O)C3CC3)C2)C1=O', 'FASN Keto-reductase Domain pIC50', 6.75),
  ('CC1(C)N=C(c2ccc(-c3ccc4cc(F)ccc4c3)cc2F)N(CC2CN(C(=O)C3CC3)C2)C1=O', 'FASN Keto-reductase Domain pIC50', 6.55);
